EXPERIMENTAL_SYSTEM: T1, human CLEC-1A expressed on the cell membrane (human, UniProt Q8NC01 1-280)
T1 construct: Endogenous on human U266 myeloma cells, on monocyte-derived TGFb-DC and macrophages; on CHO cells after transduction with a Clec-1 expressing lentivirus; also called U266 CLEC1; CLEC-1A on U266 cells
T1 sequence: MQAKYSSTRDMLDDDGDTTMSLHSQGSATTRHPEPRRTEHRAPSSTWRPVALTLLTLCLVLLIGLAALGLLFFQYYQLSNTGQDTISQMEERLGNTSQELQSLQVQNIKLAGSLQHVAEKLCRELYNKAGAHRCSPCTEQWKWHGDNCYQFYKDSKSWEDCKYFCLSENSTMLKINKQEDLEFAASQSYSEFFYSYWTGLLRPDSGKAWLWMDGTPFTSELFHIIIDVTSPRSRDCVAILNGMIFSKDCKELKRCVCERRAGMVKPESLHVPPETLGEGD
ASSAY_OVERVIEW: flow cytometry on U266 cells
Procedure: Method: To measure binding of anti-CLEC1 on human U266 cell lines (pre-blocked with Fcblock to blocking FcR), antibodies at different concentrations were incubated for 30 min at 4° C., and washed before stained 30 min at 4° C. with PE-labelled anti-human IgG (Biolegend; reference 409304). Samples were analyzed on Cytoflex cytofluorometer (Beckman Coulter). The MFI of anti-CLEC1 was compared between all anti-CLEC1 antibodies and percentage of stained cells was analysed in all conditions.
READOUT: EC50
# output: number + unit

Problem: Identify the reported EC50 for the following entry. chimeric anti-CLEC-1A antibody 14H9 (antibody, human IgG4 S228P, kappa, V domains shown, also called 14H9chim; 14H9-VHwt-FcG4m / 14H9-VLwt-CLhk) VH: QVQLKESGPGLVAPSQSLSITCTISGFSLTTYGIHWVRQPPGKGLEWLVVIWSDGSTIYNSALKSRLSISKDNSKSQVFLKMNSLQTDDTAIYYCARHGGYYNYFDYWGQGTTLTVSS VL: DIQMNQSPSSLSASLGDTITITCHASQNINVWLSWYQQKPGNIPKLLIYKASNLHTGVPSRFSGSGSGTTFTLTIDSLQPEDIATYYCQQGQSYWTFGGGTKLEIKR
Result: 0.113 µg/mL

Problem: Identify the reported EC50 for the following entry. chimeric anti-CLEC-1A antibody 11H11 (antibody, human IgG4 S228P, kappa, V domains shown, also called 11H11chim; 11H11-VHwt-FcG4m / 11H11-VLwt-CLhk) VH: QIHLVQSGPELKKPGETVKISCKASGYTFTNFGMNWVKQAPGKGLKWMGWINTNTGEPTYADDFKGRFAFSLETSASTAYLQINNLKNEDTATYFCARGAPAWFTYWGQGTLVTVSA VL: DIQMTQSPASLSASVGETVTITCRATENIYSYLAWYQQKQGKSPQFLVYNAKTLAEGMPSRFSGSGSGTQFSLKINILQPEDFGTYYCQHHFGTPLTFGAGTKLELKR
Result: 1.12 µg/mL

Problem: Identify the reported EC50 for the following entry. chimeric anti-CLEC-1A antibody 15E3 (antibody, human IgG4 S228P, kappa, V domains shown, also called 15E3chim; 15E3-VHwt-FcG4m / 15E3-VLwt-CLhk) VH: QVQLQQSGPELVKPGASVKMSCKASGFTFTDYVIAWVKVRTGQGLEWIGEIYPGSGSIYYNEKFKGKATLTADKSSNTAYMQLSSLTSEDSAVYFCASSTVVAFDYWGQGTTLTVSS VL: EIVLTQSPTTLAASPGEKIIITCSDSSSISSNYLHWYQQKPGFSPKLLIYGTSNLASGVPARFSGSGSGTTYSLTIGTMEAEDVATYYCQQGSSIPRTFGGGTKLEIKR
Result: 0.251 µg/mL
